Assay: folding stability dG unfold (combined trypsin and chymotrypsin); higher = more stable
Think of 3 kcal/mol as a floor: if folding stability dG unfold stands on it or above, it is t; beneath it, f.

As a guide, the following entries are already answered.
Qu. Item SAGGSAGGPPPAKVVEVREVTLEDLENLDKLLVVFPDGKVYTSPEALRKWLEEGKPVLVAVFEGSAGGSAGG [r6_827_TrMRF] with folding stability dG unfold of 3 kcal/mol or above?
Ans. f

Qu. Quick check: does SAGGSAGGSAGPVKLTLEVPEEEAEELAEALREAGYEVEIERDEETKRLRVTITVDPEALSAGGSAGGSAGG [r11_1043_TrROS_Hall] have folding stability dG unfold greater than or equal to 3 kcal/mol?
Ans. f

Qu. Is reported folding stability dG unfold greater than or equal to 3 kcal/mol here: SSMVVINFPDTKKATPETLRKEIEPVAAPGKPVLVTVYPPTGVVLKTATVEPDKVEEVDPSHPYIVEIVASA [r9_264_JUSTAS]
Ans. f

Qu. Is reported folding stability dG unfold greater than or equal to 3 kcal/mol here: SAGGSAGGSAKKITVEITIEVNGKKYKVKAEIELDEETKTLTIKVTFPDGTEFEFTFKLPEESAGGSAGGSA [r18_239_TrROS_Hall]
Ans. t

Qu. Given SAGMTLTVVLPVPEEMTEEEAAEILRAYVDAVVAELLAGDAVAVPKEIVVDKETGTAVAKVELFIPPDLSAG [r5_146_TrMRF] , state whether its folding stability dG unfold is at least 3 kcal/mol.
Ans. f

More entries:
Qu. Is folding stability dG unfold at least 3 kcal/mol? Consider SAGGSAGGSAGGPPSVPITITLIILFPDGYFIVIELTIEVPPDGEIEIKIKILHIFPVKSAGGSAGGSAGGS [r10_1139_TrROS]
Ans. t

Qu. Identify whether the reported folding stability dG unfold of the following sequence is 3 kcal/mol or greater: SAGGSAGGSASKYVKVTVRLTPPDGTTRTVEITDPNKTVEEIIASLPSDEPVEVTEVEELPPSAGGSAGGSA [r18_32_JUSTAS]
Ans. f
